EXPERIMENT SUMMARY: stimulators of nuclear beta-catenin in C2C12, primary screen, imaging, WNT3A-conditioned medium, mouse C2C12, NPC library (AID 1117326); further: reference of the scale not given here
TEST PARAMETERS: stimulation, at 2 µM, stronger effect = higher value
Reported values of nuclear beta-catenin stimulation for individual entries
REPORTED PROPERTY: nuclear beta-catenin stimulation (%)

1. CC(=O)OCC(=O)[C@@]1(O)CC[C@H]2[C@@H]3CCC4=CC(=O)C=C[C@]4(C)[C@@]3(F)[C@@H](O)C[C@@]21C	0
2. O=C(O)C(S)C(S)C(=O)O (stereo unspecified)	0.8
3. O=C1NCCN1CCN1CCC(c2cn(-c3ccc(F)cc3)c3ccc(Cl)cc23)CC1	0.1
4. CCCCC[C@@H](O)CC[C@H]1[C@@H]2Cc3cccc(OCC(=O)O)c3C[C@@H]2C[C@@H]1O	0.2
5. FCOC(C(F)(F)F)C(F)(F)F	-0.4
6. CCCCCCCCCCCCCCCCCC[N+](C)(C)CCC[Si](OC)(OC)OC	-0.8
